Test system: reserpine-induced blepharospasm
testDescription: antagonism to reserpine-induced blepharospasm
Type: in vivo, male mice
conditionParameters: Mus musculus, po, 3 h, read-out: Reserpine antagonism, Blepharospasm (ED50)
Response field label: string, one of t (ED50 strictly below 0.5 mg/kg) or f.

In [3]: df
Out[3]:
                                   molecule  category
0  CC(=CC#N)OC[C@@H]1C[C@@H]2c3cccc4[nH]cc(c34)C[C@H]2N(C)C1 [355/1311]         f
1  CN1C[C@H](COC2=CC(=O)CC2)C[C@@H]2c3cccc4[nH]cc(c34)C[C@H]21 [355/1228]         t
2  CN1C[C@H](COC2=CC(=O)CC2)C[C@@H]2c3cccc4[nH]c(Cl)c(c34)C[C@H]21 [355/1335]         t
3  Cc1[nH]c2cccc3c2c1C[C@@H]1[C@@H]3C[C@@H](COC2=CC(=O)CC2)CN1C [355/1301]         t
4  CN1C[C@H](CNC2=CC(=O)CC2)C[C@@H]2c3cccc4[nH]cc(c34)C[C@H]21 [355/1206]         f

###

System: reserpine-induced hypothermia
testDescription: antagonism to reserpine-induced hypothermia
Assay type: in vivo
conditionParameters: Mus musculus, po; gavage 1 h before reserpine 1.5 mg/kg i.p.; rectal temperature 2 h after blepharospasm evaluation; male mice
Procedure: The tests were performed in an air-conditioned room at the constant temperature of 19°±1° C. […] One hour later the animals received an i.p. injection of reserpine (1.5 mg/kg; 1 ml/100 g b.w.), and one of the control groups the same volume of the vehicle alone (blank controls). Three hours after pretreatments, i.e. two hours after reserpine or vehicle treatments, blepharospasm was evaluated in scores as proposed by RUBIN et al. (J. Pharmacol., 120:125, 1957). […]
Response field label: string, one of Condition met (ED50 strictly below 8 mg/kg) or Condition not met.

                                   compound                   testedsystem           category
0  CC(=CC#N)OC[C@@H]1C[C@@H]2c3cccc4[nH]cc(c34)C[C@H]2N(C)C1  reserpine-induced hypothermia      Condition met
1  CN1C[C@H](COC2=CC(=O)CC2)C[C@@H]2c3cccc4[nH]c(Cl)c(c34)C[C@H]21  reserpine-induced hypothermia      Condition met
2  CN(C)CCCN1c2ccccc2CCc2ccccc21 [imipramine, reference compound]  reserpine-induced hypothermia  Condition not met
3  Cc1[nH]c2cccc3c2c1C[C@@H]1[C@@H]3C[C@@H](COC2=CC(=O)CC2)CN1C  reserpine-induced hypothermia      Condition met
4  CN1C[C@H](COC2=CC(=O)CC2)C[C@@H]2c3cccc4[nH]cc(c34)C[C@H]21  reserpine-induced hypothermia      Condition met
5  CN1C[C@H](CNC2=CC(=O)CC2)C[C@@H]2c3cccc4[nH]cc(c34)C[C@H]21  reserpine-induced hypothermia      Condition met

###

Entries annotated with measured LD50 at 168 h
testDescription: orientative acute toxicity (7 days observation, Irwin's observational assessment of mouse behavior)
conditionParameters: mouse, in vivo, po
measurementType: LD50 at 168 h (mg/kg)

                                  molsmiles  measurementtype  censoringqualifier  resultnumber
0  CN1C[C@H](CNC2=CC(=O)CC2)C[C@@H]2c3cccc4c3c(cn4C)C[C@H]21    LD50 at 168 h                   >           400
1  CN1C[C@H](COC2=CC(=O)CC2)C[C@@H]2c3cccc4[nH]cc(c34)C[C@H]21    LD50 at 168 h                   >           600
2  CN1C[C@H](COC2=CC(=O)CC2)C[C@@H]2c3cccc4[nH]c(Cl)c(c34)C[C@H]21    LD50 at 168 h                   =           200
3  Cc1[nH]c2cccc3c2c1C[C@@H]1[C@@H]3C[C@@H](COC2=CC(=O)CC2)CN1C    LD50 at 168 h                   =           300
4  CSc1[nH]c2cccc3c2c1C[C@@H]1[C@@H]3C[C@@H](COC=CC(C)=O)CN1C    LD50 at 168 h                   >           300
5  CCCN1C[C@H](COC=CC(C)=O)C[C@@H]2c3cccc4[nH]cc(c34)C[C@H]21    LD50 at 168 h                   =           400
6  CC(=CC#N)OC[C@@H]1C[C@@H]2c3cccc4[nH]cc(c34)C[C@H]2N(C)C1    LD50 at 168 h                   =           300
7  CN1C[C@H](CNC2=CC(=O)CC2)C[C@@H]2c3cccc4[nH]cc(c34)C[C@H]21    LD50 at 168 h                   >           800
8  CO[C@]12C[C@@H](COC3=CC(=O)CC3)CN(C)[C@@H]1Cc1cn(C)c3cccc2c13    LD50 at 168 h                   =           200
9  CC(=O)C=C(C)OC[C@@H]1C[C@@H]2c3cccc4[nH]cc(c34)C[C@H]2N(C)C1    LD50 at 168 h                   >           800
